target: Toll-like receptor 7 (Homo sapiens) (UniProt Q9NYK1); experiment: Inhibition of human TLR7 expressed in HEK293 cells assessed as decrease in R848-induced NF-kappaB activation-mediated SEAP production at 40 uM after 24 hrs by Quanti-blue-based assay relative to control; assay type: cell-based
# label = met if inhibition >= 30% else not met

Here are 6 molecules together with their reported answers.
compound	label_value
O=C(NNC(=O)c1cnccn1)c1cccc(C(F)(F)F)c1	not met
O=C(NNC(=O)c1cc2ccccc2[nH]1)c1ccc(Cl)cc1	not met
Nc1nccnc1C(=O)NNC(=O)c1ccc(O)cc1	not met
Nc1cccnc1C(=O)NNC(=O)c1cccc(C(F)(F)F)c1	met
Cc1nc(C(=O)NNC(=O)c2ccccc2Cl)cs1	not met
Cc1nc(C(=O)NNC(=O)c2cccc(O)c2)cs1	not met

Turning now to a further molecule:
Tell me whether inhibition is at least 30% here: `Nc1nccnc1C(=O)NNC(=O)c1ccc(Cl)cc1`
met

----------
target: UniProt P19438; experiment: Inhibition of TNFR in TLR null HEK-blue cells assessed as decrease in TNFalpha-stimulated NF-kappaB activation-mediated SEAP production after 24 hrs by Quanti-blue-based assay
Sequence (P19438 whole entry): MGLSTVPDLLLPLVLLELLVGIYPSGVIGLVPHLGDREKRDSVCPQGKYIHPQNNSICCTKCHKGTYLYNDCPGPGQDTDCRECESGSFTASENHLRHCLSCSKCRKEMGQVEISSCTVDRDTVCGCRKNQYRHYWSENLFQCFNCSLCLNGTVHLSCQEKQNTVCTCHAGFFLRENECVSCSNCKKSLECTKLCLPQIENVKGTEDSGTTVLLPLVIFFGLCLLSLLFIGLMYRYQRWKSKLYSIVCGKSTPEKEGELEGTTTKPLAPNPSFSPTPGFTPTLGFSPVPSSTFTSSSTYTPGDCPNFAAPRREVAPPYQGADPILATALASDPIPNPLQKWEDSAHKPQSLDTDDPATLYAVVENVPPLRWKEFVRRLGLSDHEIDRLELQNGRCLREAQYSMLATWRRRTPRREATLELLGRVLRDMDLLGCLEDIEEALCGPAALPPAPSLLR
metric: pIC50
Numbers only, as −log10 of the molar value.

Please fill in: pIC50 reported for `O=C(NNC(=O)c1csc(-c2ccc(Cl)cc2Cl)n1)c1ccccn1` = 6.11

----------
target: UniProt:Q9NYK1; assay: Inhibition of human TLR7 expressed in HEK293 cells assessed as decrease in R848-induced NF-kappaB activation-mediated SEAP production at 5 uM after 24 hrs by Quanti-blue-based assay relative to control; assay type: cell-based
Exercise: for every item that follows, state its recorded inhibition.
Answers are plain numbers, in %.

Below, 6 compounds whose answers are already recorded.
compound	inhibition [%]
O=C(NNC(=O)c1csc(-c2cccc(Cl)c2)n1)c1ccccn1	93.7
O=C(NNC(=O)c1csc(-c2ccc(C(F)(F)F)cc2)n1)c1ccccn1	96.1
O=C(NNC(=O)c1csc(-c2cccc(Br)c2)n1)c1ccccn1	97.6
O=C(NNC(=O)c1csc(-c2ccc(F)cc2)n1)c1ccccn1	65
O=C(NNC(=O)c1csc(-c2cc(Cl)cc(Cl)c2)n1)c1ccccn1	99.1
CN(C)c1ccc(-c2nc(C(=O)NNC(=O)c3ccccn3)cs2)cc1	93.1

Batch request: inhibition for each of the following compounds.
1. O=C(NNC(=O)c1csc(-c2ccc(Cl)cc2)n1)c1ccccn1
2. COc1ccc(-c2nc(C(=O)NNC(=O)c3ccccn3)cs2)cc1
3. COc1ccc(-c2nc(C(=O)NNC(=O)c3ccccn3)cs2)cc1OC
4. CCc1ccc(-c2nc(C(=O)NNC(=O)c3ccccn3)cs2)cc1
5. O=C(NNC(=O)c1csc(-c2cccc(C(F)(F)F)c2)n1)c1ccccn1
6. O=C(NNC(=O)c1csc(-c2cccc(F)c2)n1)c1ccccn1
7. O=C(NNC(=O)c1csc(-c2cccc(Cl)c2Cl)n1)c1ccccn1
8. O=C(NNC(=O)c1csc(-c2ccc(Cl)cc2Cl)n1)c1ccccn1

[91, 80.3, 66, 91.9, 96.7, 79, 99.9, 99.6]

UniProt:Q9NYK1 data for `Cc1ccc(-c2nc(C(=O)NNC(=O)c3ccccn3)cs2)cc1` ; its inhibition: 88.2

----------
biological target: Toll-like receptor 7 (Homo sapiens); assay: Inhibition of human TLR7 expressed in HEK293 cells assessed as decrease in R848-induced NF-kappaB activation-mediated SEAP production at 40 uM after 24 hrs by Quanti-blue-based assay relative to control; format: cell-based
metric: inhibition (%)
Numbers only, in %.

compound	inhibition (%)
Nc1nccnc1C(=O)NNC(=O)c1ccc([N+](=O)[O-])cc1Cl	23

Batch request: inhibition for each of the following compounds.
1. Nc1ncc(Cl)nc1C(=O)NNC(=O)c1cccc(C(F)(F)F)c1
2. O=C(NNC(=O)c1ccccn1)c1cccc(C(F)(F)F)c1
3. Nc1nccnc1C(=O)NNC(=O)c1ccccc1C(F)(F)F
4. Cc1nc(C(=O)NNC(=O)c2cccc(Cl)c2)cs1
5. O=C(NNC(=O)c1ncccc1O)c1cccc(C(F)(F)F)c1
6. O=C(NNC(=O)c1csc(-c2ccccc2)n1)c1ccccn1

21
88
23
40
96
98.8

----------
target: Toll-like receptor 7 (Homo sapiens); assay: Inhibition of human TLR7 expressed in HEK293 cells assessed as decrease in R848-induced NF-kappaB activation-mediated SEAP production at 40 uM after 24 hrs by Quanti-blue-based assay relative to control; format: cell-based
# label = Fulfilled if inhibition >= 40% else Not fulfilled

Here are 5 compounds together with their reported answers.
compound	label_value
O=C(NNC(=O)c1nccnc1Cl)c1cccc(C(F)(F)F)c1	Not fulfilled
O=C(NNC(=O)c1ncccc1O)c1ccc(OC(F)(F)F)cc1	Fulfilled
Nc1nccnc1C(=O)NNC(=O)c1cccnc1	Not fulfilled
O=C(NNC(=O)c1ccccn1)c1ccc(OC(F)(F)F)cc1	Fulfilled
CCCC1Nc2nccnc2C(=O)N1NC(=O)c1cccc(C(F)(F)F)c1 (stereo unspecified)	Not fulfilled

Turning now to a further compound:
Tell me whether inhibition is at least 40% here: `Nc1nccnc1C(=O)NNC(=O)c1ccc(Br)cc1`
Not fulfilled

----------
biological target: Toll-like receptor 7 (Homo sapiens); assay: Inhibition of human TLR7 expressed in HEK293 cells assessed as decrease in R848-induced NF-kappaB activation-mediated SEAP production at 40 uM after 24 hrs by Quanti-blue-based assay relative to control; format: cell-based
Exercise: for every item that follows, state its recorded inhibition.
Numbers only, in %.

Below, 8 compounds whose answers are already recorded.
compound	metric	unit_label	recorded_measurement
Cc1nc(C(=O)NNC(=O)c2cccc(F)c2)cs1	inhibition	%	21.1
O=C(NNC(=O)c1ncccc1O)c1ccc(Cl)cc1	inhibition	%	81
O=C(NNC(=O)c1ncccc1O)c1ccc(Br)cc1	inhibition	%	96.2
Cc1nc(C(=O)NNC(=O)c2ccncc2)cs1	inhibition	%	19.5
Nc1nccnc1C(=O)NNC(=O)c1cccc(C(F)(F)F)c1	inhibition	%	68
Nc1nccnc1C(=O)NNC(=O)c1ccc(F)cc1F	inhibition	%	26
Cc1nc(C(=O)NNC(=O)c2cccc(OC(F)(F)F)c2)cs1	inhibition	%	26
Nc1ncccc1C(=O)NNC(=O)c1cccc(C(F)(F)F)c1	inhibition	%	22

Now for a further compound.
Please fill in: inhibition reported for `Cc1nc(C(=O)NNC(=O)c2cc(Cl)cc(Cl)c2)cs1` = 24

----------
Target: Toll-like receptor 7 (Homo sapiens)
Sequence (whole entry): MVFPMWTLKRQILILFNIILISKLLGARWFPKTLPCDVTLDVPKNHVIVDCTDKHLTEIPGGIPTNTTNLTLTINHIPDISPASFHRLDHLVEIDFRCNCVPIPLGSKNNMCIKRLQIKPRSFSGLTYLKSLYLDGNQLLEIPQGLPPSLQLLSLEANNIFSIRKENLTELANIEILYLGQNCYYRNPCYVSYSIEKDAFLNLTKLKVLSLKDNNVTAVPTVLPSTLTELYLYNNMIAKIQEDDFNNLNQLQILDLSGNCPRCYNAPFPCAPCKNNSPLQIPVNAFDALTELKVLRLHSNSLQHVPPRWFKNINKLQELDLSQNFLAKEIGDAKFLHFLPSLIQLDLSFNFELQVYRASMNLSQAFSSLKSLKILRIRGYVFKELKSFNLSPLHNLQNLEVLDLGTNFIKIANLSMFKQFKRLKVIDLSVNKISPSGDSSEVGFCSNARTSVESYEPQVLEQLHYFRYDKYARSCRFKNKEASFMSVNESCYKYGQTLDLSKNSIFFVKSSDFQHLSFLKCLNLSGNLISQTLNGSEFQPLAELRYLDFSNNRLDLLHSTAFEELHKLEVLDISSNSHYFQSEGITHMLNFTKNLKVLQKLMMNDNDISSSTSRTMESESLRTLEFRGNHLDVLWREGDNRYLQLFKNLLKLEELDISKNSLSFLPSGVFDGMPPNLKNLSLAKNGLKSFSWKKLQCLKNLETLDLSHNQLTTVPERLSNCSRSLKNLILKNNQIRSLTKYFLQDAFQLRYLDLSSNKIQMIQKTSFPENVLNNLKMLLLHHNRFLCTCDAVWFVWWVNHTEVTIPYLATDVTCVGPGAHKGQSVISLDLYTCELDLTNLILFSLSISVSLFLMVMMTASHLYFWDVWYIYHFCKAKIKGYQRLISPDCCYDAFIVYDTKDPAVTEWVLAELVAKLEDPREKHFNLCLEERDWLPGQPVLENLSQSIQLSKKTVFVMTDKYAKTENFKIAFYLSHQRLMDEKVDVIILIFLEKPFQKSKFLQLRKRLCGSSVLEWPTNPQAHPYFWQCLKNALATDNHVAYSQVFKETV
Assay: Inhibition of human TLR7 expressed in HEK293 cells assessed as decrease in R848-induced NF-kappaB activation-mediated SEAP production at 40 uM after 24 hrs by Quanti-blue-based assay relative to control
Type: cell-based
# label = YES if inhibition >= 30% else NO

compound	label_value
Cc1nc(C(=O)NNC(=O)c2cccc(C#N)c2)cs1	NO
COc1ccc(C(=O)NNC(=O)c2nccnc2N)cc1	NO
Cc1nc(C(=O)NNC(=O)c2ccccn2)cs1	YES
Cc1nc(C(=O)NNC(=O)c2cccc(C(F)(F)F)c2)cs1	YES
O=C(NNC(=O)c1csc(-c2ccncc2)n1)c1ccccn1	YES
Cc1nc(C(=O)NNC(=O)c2ccc(Cl)cc2)cs1	YES

Turning now to a further compound:
Tell me whether inhibition is at least 30% here: `N#Cc1ccc(C(=O)NNC(=O)c2nccnc2N)cc1`
NO
